Target: E3 ubiquitin-protein ligase XIAP (Homo sapiens) (UniProt P98170)
Sequence (P98170 whole entry, looked up): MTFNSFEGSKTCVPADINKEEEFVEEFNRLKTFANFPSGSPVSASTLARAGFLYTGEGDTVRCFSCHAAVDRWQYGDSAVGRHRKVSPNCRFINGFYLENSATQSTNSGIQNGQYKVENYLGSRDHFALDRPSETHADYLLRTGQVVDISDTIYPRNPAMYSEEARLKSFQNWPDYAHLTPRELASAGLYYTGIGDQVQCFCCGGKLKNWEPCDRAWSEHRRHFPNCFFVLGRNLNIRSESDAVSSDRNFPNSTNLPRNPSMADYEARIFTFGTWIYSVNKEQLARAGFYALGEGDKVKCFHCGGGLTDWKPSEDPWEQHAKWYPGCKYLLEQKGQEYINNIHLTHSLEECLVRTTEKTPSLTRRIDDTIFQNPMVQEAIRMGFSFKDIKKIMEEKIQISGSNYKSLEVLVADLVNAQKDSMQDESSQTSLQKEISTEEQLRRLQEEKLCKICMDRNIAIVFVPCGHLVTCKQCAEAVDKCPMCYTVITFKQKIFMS
Assay: XIAP binders, primary screen, biophysical, small-molecule microarray, fluorescence 635 nm (AID 1181);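 further: score merges 667 nm emission and signal to noise over triplicate slides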
Conditions: small-molecule microarray binding, higher = more signal
Cut-off 0.07 on composite z-score, inclusive. At or above means class 1; below means class 0.

Example cases with answers are listed next.
O=C(O)[C@H]1C[C@H]2C(=O)N[C@@H](Cc3ccccc3)C(=O)N2[C@H]1c1cccc(OCCO)c1; class 0
CC(CO)N1C(=O)[C@@H]2[C@H]3C(=O)OCC=C[C@H]3OC23C=CCN(c2ccc(Cl)cc2)C(=O)[C@@H]13 (stereo partly drawn); class 0

Kindly review the next molecule as well.
stdin: Given the entry CC(C)CCC[C@@H](C)[C@H]1CC[C@@]2(C)C3=C(CC[C@]12C)[C@@]1(C)CC[C@H](OC(=O)c2ccccc2)C(C)(C)C1CC3 (stereo partly drawn) , answer whether its composite z-score meets or surpasses 0.07.
stdout: class 0

* * *

Assay: basal S. cerevisiae growth modulation, no modifier, primary screen, OD600, strain BY4716, 24 h, basal condition (AID 1173)
Settings: OD600, 24 h, higher = more signal, called active from +8 up or from −8 down
observed-property: z-score
Give bare numbers.

CCCCC(=O)N(CCN1CCOCC1)[C@@H]1CC(C(=O)NCCO)=C[C@H](Oc2c(I)cc(CO)cc2OC)[C@H]1O; -1.23
CN(C)CCCC[C@@H]1NC(=O)[C@@H]2C[C@H](C(=O)O)[C@H](c3cccc(OCCO)c3)N2C1=O; -0.79

Please state, for each entry, its recorded z-score.
1. COc1ccc(C#Cc2ccc3c(c2)[C@]2(C(=O)N3)[C@H](c3ccc(OCCO)cc3)N3[C@H](c4ccccc4)[C@H](c4ccccc4)OC(=O)[C@H]3[C@@H]2C(=O)N2CCc3cc(OC)c(OC)cc3C2)cc1
2. CC1(C)C(=O)C(c2ccccc2)=C2CN3C(=O)N(CCc4ccccc4)C(=O)C3(Cc3ccc(C(F)(F)F)cc3)C=C21 (stereo unspecified)
3. COc1ccc([Si](C)(C)[C@H]2[C@H](CC(=O)N3CCC[C@H]3CO)O[C@@]3(C(=O)N(Cc4ccc(N5CCC5=O)cc4)c4ccccc43)[C@@H]2C)cc1

stdout:
1. 2.06
2. 1.72
3. -0.942

stdin: Entry `C[C@]1(C(=O)NCCN2CCOCC2)c2ccccc2C(=O)N(Cc2cc(F)cc(C(F)(F)F)c2)[C@H]1c1ccc(CO)cc1` : reported z-score = ?
stdout: 0.375

* * *

Target: Epidermal growth factor receptor (Homo sapiens)
Experiment: EGFR binders on small-molecule microarrays, primary screen, biochemical, small-molecule microarray, 635 nm fluorescence (AID 1104);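 further: score merges 667 nm emission intensity with spot signal to noise over triplicate slides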
Conditions: EGFR binding, higher = more signal
Use True when the recorded composite z-score is no lower than 0.2; use False when it is lower.

// known answers, use as guide
CN1C(=O)C2C=CC(C(O)c3ccc(I)cc3)N(Nc3ccccc3)C2C1=O (stereo not drawn); True
C=CCN1C(=O)[C@]2(O[C@H](CCO)[C@@H]([Si](C)(C)c3ccc(OC)cc3)[C@@H]2C)c2cc(NC(=O)c3ccc(OC)cc3)ccc21; True
C[C@]1(C(=O)NCCN2CCOCC2)c2ccccc2C(=O)N(Cc2cc(F)cc(C(F)(F)F)c2)[C@H]1c1ccc(CO)cc1; False
CCCCC(=C=CC[C@H](O)c1ccc(OCCO)cc1)C[C@H](O)c1cc(Cl)cc(Cl)c1O; False
Cc1ccccc1C(O)C1C=CC2C(=O)NC(=O)C2N1Nc1ccc(Cl)cc1Cl (stereo not drawn); True
COc1cc2c(cc1O)C(c1cccs1)N(Cc1sc3ccccc3c1Cl)CC2 (stereo not drawn); True
CN1C(=O)C2C=CC(C(O)c3cc(C(F)(F)F)cc(C(F)(F)F)c3)N(Nc3ccccc3)C2C1=O (stereo not drawn); False

stdin: Check the entry `CN(C)CCCCNC(=O)[C@H]1C[C@H]2C(=O)N[C@@H](CCCC[N+](C)(C)C)C(=O)N2[C@H]1c1ccc(O)cc1` : does composite z-score equal or exceed 0.2?
stdout: False

* * *

Assay: binders of probe aFSTL3 on microarray, primary screen, stem cell growth factor project, biochemical, small-molecule microarray, fluorescence 635/667 (AID 1064);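 further: measures binding of the biotinylated anti-FSTL3 antibody to printed compounds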
Details: higher = more signal
Please respond with reported composite z-score for every item in the list.
Numbers only.

CC(C)(C)OC(=O)CC[C@]12N=C(c3ccc(OCCCO)cc3)O[C@H]1c1ccccc1N(Cc1ccccc1)C2=O; 0.555
COCCCNC(=O)[C@@]1(c2ccc([N+](=O)[O-])cc2)CC(=O)N(C(C)C)[C@@H]1c1ccc(CO)cc1; 0.135
CCCNC(=O)[C@@]1(Sc2ccc(C)cc2)CC(=O)N(C2CCCCC2)[C@@H]1c1ccc(CO)cc1I; 0.152
O=C(CS)NCCCCCCNC(=O)[C@@H]1C[C@@H]2C(=O)NCC(=O)N2[C@@H]1c1ccc(O)cc1; 0.169

For each entry beneath this line, provide reported composite z-score.
1. COc1ccc([Si](C)(C)[C@@H]2[C@@H](CC(=O)N3Cc4ccccc4C[C@H]3CO)O[C@]3(C(=O)N(c4ccccc4)c4ccccc43)[C@H]2C)cc1
2. O=C1[C@@]23C=C(Br)[C@H](C[C@@H]2COC3)[C@@]12CO2

stdout:
1: 0.485; 2: -0.325

Please look at the items below and tell me composite z-score for each one, in order.
1. COCC(=C=CC[C@H](O)c1cccc(OCCO)c1)C[C@H](O)COCc1ccccc1
2. COc1cc(NN2C(C(O)c3ccc(I)cc3)C=CC3C(=O)N(c4ccccc4)C(=O)C32)cc(OC)c1OC (stereo not drawn)
3. O=C(CS)NCCCCCNC(=O)[C@@H]1C[C@@H]2C(=O)N[C@@H](Cc3ccccc3)C(=O)N2[C@@H]1c1cccc(OCCO)c1
4. C=CCN1C(=O)[C@@]2(O[C@@H](CCO)[C@H]([Si](C)(C)c3ccc(OC)cc3)[C@H]2C)c2cc(N3CCOC3=O)ccc21
5. CCCCCN1CC=CC23O[C@@H]4/C=C\CCC(C)OC(=O)C4[C@H]2C(=O)N(CCCCCCO)[C@@H]3C1=O (stereo partly drawn)

stdout:
[0.0102, 0.32, -0.0315, -0.0204, -0.146]

Batch of 3 compounds: report composite z-score for each.
1. CC(C)C[C@@H]1NC(=O)[C@@H]2C[C@H](C(=O)NCCCCCC[N+](C)(C)C)[C@H](c3cccc(OCCO)c3)N2C1=O
2. COc1ccc(C(=O)Nc2cccc(CN3C(=O)[C@@]4(O[C@@H](CC(=O)N(CCO)Cc5ccccc5)[C@H]([Si](C)(C)c5ccc(OC)cc5)[C@H]4C)c4ccccc43)c2)cc1
3. CC(C)CCC[C@@H](C)[C@H]1CC[C@@]2(C)C3=C(CC[C@]12C)[C@@]1(C)CC[C@H](OC(=O)c2ccccc2)C(C)(C)C1CC3 (stereo partly drawn)

stdout:
1: 0.222; 2: -0.117; 3: -0.438

State recorded composite z-score for all listed compounds.
1. CCOC(=O)C[C@H]1[C@H](OC(=O)c2ccccc2-c2ccccc2)[C@@H](NC(=O)c2ccccc2)c2cc(OCCCO)ccc2N1C(=O)c1ccccc1
2. O=C1C2C=CC(C(O)c3cccc(O)c3)N(Nc3ccccc3)C2C(=O)N1c1ccccc1 (stereo not drawn)
3. COCCOC(=O)N1C(=O)[C@@]2(c3cc(C#CCC(C(=O)OC)C(=O)OC)ccc31)[C@H](c1ccc(OCCO)cc1)N1[C@H](c3ccccc3)[C@H](c3ccccc3)OC(=O)[C@H]1[C@@H]2C(=O)Nc1nc2ccccc2s1
4. CN1C(=O)C2C(C1=O)C1C=C(CCCO)C2C(c2cccs2)N1Cc1cc2c(cc1Br)OCO2 (stereo not drawn)
5. CCOC(=O)C[C@H]1[C@H](OC(=O)c2ccc(C(=O)c3ccccc3)cc2)[C@@H](NC(=O)CC(C)C)c2cc(OCCCO)ccc2N1C(=O)Cc1ccc(OC)cc1

stdout:
[-0.304, -0.0667, -0.0598, -0.262, 0.134]

Give me composite z-score for each of these compounds, listed below.
1. CCOC(=O)C[C@H]1[C@H](OC(=O)c2ccccc2-c2ccccc2)[C@@H](NC(=O)c2ccc3ccccc3n2)c2cc(OCCCO)ccc2N1C(=O)c1ccccc1
2. Cc1cccc([C@H]2C[C@H]3C(Br)=C[C@@H]2C(=O)[C@]32CO2)c1
3. COCCOC(=O)N1C(=O)[C@@]2(c3ccccc31)[C@H](c1ccccc1OCCO)N1[C@H](c3ccccc3)[C@H](c3ccccc3)OC(=O)[C@H]1[C@@H]2C(=O)N1CCCCCCC1
4. CC(=O)NCCCC[C@@H]1NC(=O)[C@H]2C[C@@H](C(=O)NCCCCCNC(=O)CS)[C@@H](c3cccc(OCCO)c3)N2C1=O
5. O=C1OCC=C[C@H]2OC34C=CCN(c5ccc6ccccc6c5)C(=O)[C@H]3N(CCCCCO)C(=O)[C@@H]4[C@@H]12 (stereo partly drawn)
6. COCCCNC(=O)[C@@H]1c2ccccc2C(=O)N(C2Cc3ccccc3C2)[C@H]1c1ccc(CO)cc1
7. [N-]=[N+]=NCc1ccccc1[C@@H]1OC(c2ccc(OCCCO)cc2)=N[C@]1(Cc1ccccc1N=[N+]=[N-])C(=O)NCCN1CCOCC1

stdout:
-0.384
0.165
4.11
-0.0107
1.43
-0.0989
-0.0579

Quick batch: composite z-score for everything below.
1. CC(CO)N1C(=O)[C@@H]2[C@H]3C(=O)OCC=C[C@H]3OC23C=CCN(c2ccc(Cl)cc2)C(=O)[C@@H]13 (stereo partly drawn)
2. CN1C(=O)C2C=CC(C(O)c3cc(C(F)(F)F)cc(C(F)(F)F)c3)N(NC(=O)OC(C)(C)C)C2C1=O (stereo not drawn)

stdout:
1.22
0.153
